B1: Pistol ribozyme (parent)
chain: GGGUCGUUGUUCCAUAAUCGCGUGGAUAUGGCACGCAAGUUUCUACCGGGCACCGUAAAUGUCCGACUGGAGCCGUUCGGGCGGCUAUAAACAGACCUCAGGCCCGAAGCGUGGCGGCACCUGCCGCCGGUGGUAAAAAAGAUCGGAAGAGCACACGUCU

Variants of: B1
assay_remarks: aptazyme ON/OFF ratio, guanine; higher = stronger switching; co-transcriptional cleavage with and without guanine
Attribute: aptazyme ON/OFF ratio
measure: aptazyme ON/OFF ratio

>>> measurement("U7G U8A G9U U10C C13G")
1.06
>>> measurement("U7C U8A U10G U11G C12A C13G")
1.09
>>> measurement("U7C U8C G9C U10G U11A C12U C13U")
1.09
>>> measurement("U7A U10G C12G C13U")
1.2
>>> measurement("U7C G9A U11G C12A C13A")
1.22
>>> measurement("U8G G9A U10A U11C C12A C13G")
1.12
>>> measurement("U7C U8C G9U U10C C12A C13G")
1.09
>>> measurement("U7G U8G G9U U10A U11C C12U")
1.22
>>> measurement("U8A G9C U10A C12G C13U")
1.14
>>> measurement("U7G G9A U11C C12U")
1.39
>>> measurement("U7C G9C U11A C12U")
1.02
>>> measurement("U8G G9A U10C U11G C12G C13G")
1.42
